Reference for the values: patent US20220119354A1

Tested on: blackgrass (Alopecurus myosuroides)
Assay: Test A postemergence, blackgrass
Type: in vivo
Settings: Alopecurus myosuroides, post-emergence, 240 h, 500 g ai/ha, 0 to 100 scale, read-out: Plant response rating, Blackgrass
experimentalReadout: pest or weed control at 500 g/ha (%)

structureAsSmiles | unitsOfMeasure | reportedValue
C[C@@H](Nc1ncc(C(F)(F)F)c(N)n1)C1Cc2ccccc2C1 | % | 30
C[C@@H](Nc1ncc(C(F)(F)F)c(N)n1)c1cc2ccc(F)cc2o1 | % | 60
C[C@@H](Nc1ncc(C(F)(F)F)c(N)n1)c1cc2ccccc2s1 | % | 60
Cc1cc(C)cc(OC[C@@H](C)Nc2ncc(C(F)(F)F)c(N)n2)c1 | % | 70

---

System: wheat (Triticum aestivum)
Assay: Test A postemergence, wheat
Assay type: in vivo
Settings: 500 g ai/ha, 0 to 100 scale, 0 is no effect, 100 is complete control

compound | assayTarget | Wheat plant response rating
CC[C@H](Nc1ncc(C(F)(F)F)c(N)n1)c1cc2ccc(F)cc2s1 [Compound 49] | wheat (Triticum aestivum) | 0
C[C@@H](Nc1ncc(C(F)(F)F)c(N)n1)c1cc2ccc(F)cc2s1 [Compound 46] | wheat (Triticum aestivum) | 0
CC[C@@H](Nc1ncc(C(F)(F)F)c(N)n1)c1cc2ccccc2s1 [Compound 43] | wheat (Triticum aestivum) | 0
C[C@H](Nc1ncc(C(F)(F)F)c(N)n1)c1cc2ccc(F)cc2s1 [Compound 47] | wheat (Triticum aestivum) | 0
C[C@@H](Nc1ncc(C(F)(F)F)c(N)n1)c1csc2ccccc12 [Compound 41] | wheat (Triticum aestivum) | 0
CC[C@H](Nc1ncc(C(F)(F)F)c(N)n1)c1cc2ccccc2s1 [Compound 44] | wheat (Triticum aestivum) | 0
C[C@@H](Nc1ncc(C(F)(F)F)c(N)n1)c1coc2ccccc12 [Compound 52] | wheat (Triticum aestivum) | 30
CCC(Nc1ncc(C(F)(F)F)c(N)n1)c1coc2ccccc12 (racemic) [Compound 53] | wheat (Triticum aestivum) | 0
CC[C@@H](Nc1ncc(C(F)(F)F)c(N)n1)c1cc2ccc(F)cc2s1 [Compound 48] | wheat (Triticum aestivum) | 0
CC(Nc1ncc(C(F)(F)F)c(N)n1)c1coc2cc(F)ccc12 (racemic) [Compound 51] | wheat (Triticum aestivum) | 30
C[C@H](Nc1ncc(C(F)(F)F)c(N)n1)c1csc2ccccc12 [Compound 42] | wheat (Triticum aestivum) | 0
CC(C)[C@@H](Nc1ncc(C(F)(F)F)c(N)n1)c1cc2ccccc2s1 [Compound 50] | wheat (Triticum aestivum) | 0

---

System: ryegrass, Italian (Lolium multiflorum)
Test: Test A preemergence, Italian ryegrass
Type: in vivo
Conditions: 500 g ai/ha, 0 to 100 scale, 0 is no effect, 100 is complete control
The entries below are paired with their reported Ryegrass, Italian plant response rating.
experimentalReadout: Ryegrass, Italian plant response rating

compound | experimentalReadout | reportedValue
C[C@@H](Nc1ncc(C(F)(F)F)c(N)n1)c1cc2ccc(F)cc2s1 | Ryegrass, Italian plant response rating | 80
C[C@H](Nc1nc(N)c(C(F)(F)F)c(C(F)(F)F)n1)C1Cc2ccccc2C1 | Ryegrass, Italian plant response rating | 0
CC(Nc1ncc(S(C)(=O)=O)c(N)n1)c1cc2ccccc2s1 (stereo not drawn) | Ryegrass, Italian plant response rating | 90
C[C@H](Nc1ncc(C(F)(F)F)c(N)n1)c1cc2cccc(F)c2o1 | Ryegrass, Italian plant response rating | 0
C[C@H](Nc1ncc(C(F)(F)F)c(N)n1)c1coc2ccc(F)cc12 | Ryegrass, Italian plant response rating | 0
C[C@@H](Nc1ncc(C#N)c(N)n1)c1cc2ccccc2s1 | Ryegrass, Italian plant response rating | 60
CC(Nc1ncc(C(F)(F)F)c(N)n1)c1coc2cc(F)ccc12 (racemic) | Ryegrass, Italian plant response rating | 80
C[C@@H](Nc1ncc(C(F)(F)F)c(N)n1)c1cc2ccccc2n1C | Ryegrass, Italian plant response rating | 40
Cc1ccc2c([C@H](Nc3ncc(C(F)(F)F)c(N)n3)C3CC3)coc2c1 | Ryegrass, Italian plant response rating | 50
